Molecular target: panel of 442 kinases (Homo sapiens, UniProt P36894)
Construct: purchased Ambit Biosciences (scanMAXX KINOMEscan)
Sequence (P36894 24-532): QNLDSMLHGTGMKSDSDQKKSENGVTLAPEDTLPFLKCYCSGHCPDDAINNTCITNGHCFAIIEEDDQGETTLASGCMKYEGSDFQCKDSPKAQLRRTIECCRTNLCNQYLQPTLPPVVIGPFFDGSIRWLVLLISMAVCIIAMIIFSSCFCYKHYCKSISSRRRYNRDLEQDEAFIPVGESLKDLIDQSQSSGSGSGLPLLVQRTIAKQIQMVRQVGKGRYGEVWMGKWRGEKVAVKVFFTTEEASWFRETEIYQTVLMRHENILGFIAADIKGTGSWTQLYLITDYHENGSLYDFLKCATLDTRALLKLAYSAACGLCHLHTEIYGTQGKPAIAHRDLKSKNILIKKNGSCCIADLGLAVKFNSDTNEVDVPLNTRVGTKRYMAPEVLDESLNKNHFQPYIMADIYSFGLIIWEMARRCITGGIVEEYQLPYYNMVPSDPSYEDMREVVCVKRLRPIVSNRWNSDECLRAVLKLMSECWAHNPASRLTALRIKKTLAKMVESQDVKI
Assay: biochemical
Format: binding
Details: BMPR1A; 1 µM; read-out: % of control at 1 µM
observation.type: remaining activity at 1 µM
Answer format: number, then unit.

Lab entry: panel of 442 kinases (Homo sapiens, UniProt P36894) assay, compound FC(F)c1nc2ccccc2n1-c1nc(N2CCOCC2)nc(N2CCOCC2)n1 [ZSTK474] , remaining activity at 1 µM = 58%

Measured on panel of 442 kinases (Homo sapiens, UniProt P36894), Cn1c(=O)n(-c2ccc(C(C)(C)C#N)cc2)c2c3cc(-c4cnc5ccccc5c4)ccc3ncc21 [Dactolisib] has a documented remaining activity at 1 µM of 98%

Record COc1ncc(-c2ccc3nccc(-c4ccnnc4)c3c2)cc1NS(=O)(=O)c1ccc(F)cc1F [Omipalisib] has panel of 442 kinases (Homo sapiens, UniProt P36894) remaining activity at 1 µM equal to 100%

Simply: Nc1cc(C(F)(F)F)c(-c2cc(N3CCOCC3)nc(N3CCOCC3)n2)cn1 [Buparlisib] , panel of 442 kinases (Homo sapiens, UniProt P36894), remaining activity at 1 µM = 100%

---

For each entry below, report its remaining activity at 1 µM value.
Biological target: panel of 442 kinases (Homo sapiens, UniProt O96013)
Construct: purchased Ambit Biosciences (scanMAXX KINOMEscan)
Sequence (O96013 whole entry): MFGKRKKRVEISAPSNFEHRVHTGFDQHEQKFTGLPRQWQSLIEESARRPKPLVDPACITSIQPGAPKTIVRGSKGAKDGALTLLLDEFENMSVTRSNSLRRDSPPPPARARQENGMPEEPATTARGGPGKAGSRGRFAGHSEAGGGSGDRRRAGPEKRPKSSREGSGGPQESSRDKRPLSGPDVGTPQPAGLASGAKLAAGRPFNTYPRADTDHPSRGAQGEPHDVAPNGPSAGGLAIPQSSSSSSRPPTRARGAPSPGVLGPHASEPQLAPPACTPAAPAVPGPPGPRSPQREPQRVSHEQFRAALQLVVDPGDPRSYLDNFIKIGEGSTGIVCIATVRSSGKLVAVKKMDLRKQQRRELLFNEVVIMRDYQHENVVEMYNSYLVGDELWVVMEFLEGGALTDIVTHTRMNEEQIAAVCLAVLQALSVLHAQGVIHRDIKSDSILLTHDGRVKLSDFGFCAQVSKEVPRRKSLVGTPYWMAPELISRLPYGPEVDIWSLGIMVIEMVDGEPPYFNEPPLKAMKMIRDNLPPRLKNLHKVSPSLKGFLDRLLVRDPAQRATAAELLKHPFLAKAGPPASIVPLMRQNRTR
Assay: biochemical
Assay type: binding
Conditions: kinase PAK4; 1 µM; read-out: % of control at 1 µM
Your answer should be a plain number; it is taken to be in %.

The reported panel of 442 kinases (Homo sapiens, UniProt O96013) remaining activity at 1 µM of `COc1ncc(-c2ccc3nccc(-c4ccnnc4)c3c2)cc1NS(=O)(=O)c1ccc(F)cc1F` is 95

Tested on panel of 442 kinases (Homo sapiens, UniProt O96013), the item `Cn1c(=O)n(-c2ccc(C(C)(C)C#N)cc2)c2c3cc(-c4cnc5ccccc5c4)ccc3ncc21` showed remaining activity at 1 µM equal to 100

Entry `FC(F)c1nc2ccccc2n1-c1nc(N2CCOCC2)nc(N2CCOCC2)n1` : remaining activity at 1 µM on panel of 442 kinases (Homo sapiens, UniProt O96013) = 96

Param item: `Nc1cc(C(F)(F)F)c(-c2cc(N3CCOCC3)nc(N3CCOCC3)n2)cn1` ; param system: panel of 442 kinases (Homo sapiens, UniProt O96013); output remaining activity at 1 µM: 93

---

Biological target: CLK4 (Homo sapiens, UniProt Q9HAZ1)
Construct: purchased Ambit Biosciences (scanMAXX KINOMEscan)
Sequence (Q9HAZ1 whole entry): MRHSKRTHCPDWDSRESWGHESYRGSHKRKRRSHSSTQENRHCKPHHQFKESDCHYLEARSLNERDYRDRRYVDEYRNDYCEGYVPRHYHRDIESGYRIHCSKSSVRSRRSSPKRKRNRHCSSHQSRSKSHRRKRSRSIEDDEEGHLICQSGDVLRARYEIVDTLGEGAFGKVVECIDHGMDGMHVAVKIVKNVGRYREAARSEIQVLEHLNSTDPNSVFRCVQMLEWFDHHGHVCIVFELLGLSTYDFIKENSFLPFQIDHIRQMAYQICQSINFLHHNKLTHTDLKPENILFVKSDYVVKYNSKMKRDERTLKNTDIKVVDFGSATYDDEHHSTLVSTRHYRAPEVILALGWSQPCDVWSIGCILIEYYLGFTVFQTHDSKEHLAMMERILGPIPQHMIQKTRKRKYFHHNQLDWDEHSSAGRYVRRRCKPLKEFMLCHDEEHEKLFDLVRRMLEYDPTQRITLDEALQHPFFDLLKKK
Experiment: KINOMEscan, CLK4
Type: binding
Details: CLK4; 1 µM; read-out: % of control at 1 µM
observation.type: remaining binding at 1 µM

Memo: `Nc1cc(C(F)(F)F)c(-c2cc(N3CCOCC3)nc(N3CCOCC3)n2)cn1` , reported remaining binding at 1 µM: 38%

// field: remaining binding at 1 µM; key: `COc1ncc(-c2ccc3nccc(-c4ccnnc4)c3c2)cc1NS(=O)(=O)c1ccc(F)cc1F` ; value = 100%

Reported remaining binding at 1 µM ( `Cn1c(=O)n(-c2ccc(C(C)(C)C#N)cc2)c2c3cc(-c4cnc5ccccc5c4)ccc3ncc21` ) = 12%

The reported remaining binding at 1 µM of the compound `FC(F)c1nc2ccccc2n1-c1nc(N2CCOCC2)nc(N2CCOCC2)n1` was 96%

src = paper PMC5564600
